Target: XIAP BIR3 protein of human XIAP (residues 241-356) (Homo sapiens)
Assay: biochemical
Ends that are not written are not given here.

>  <Substance>
ARPFAQK [SM7]

>  <IC50 / nM>
570

$$$$

---

Biological target: XIAP BIR3 protein of human XIAP (residues 241-356) (Homo sapiens, UniProt P98170)
Sequence (P98170 241-356): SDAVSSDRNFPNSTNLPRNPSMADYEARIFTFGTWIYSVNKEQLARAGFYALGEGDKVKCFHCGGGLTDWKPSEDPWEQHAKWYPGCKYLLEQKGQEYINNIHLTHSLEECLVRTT
Details: read-out: IC50 (displacement of SM7F from XIAP BIR3); 10 nM SM7F, 0.060 μM XIAP BIR3; three independent experiments in triplicate
Measured Quantity: IC50 (µM)

>  <Compound String>
CCCCCCCCCCCC1=C(O)C(=O)C=C(O)C1=O

>  <Numeric Value>
4.1

$$$$
